Listing: Mean % WT Binding of selected binders
- TESTED SYSTEM: human CD33 I281A (human, UniProt P20138 18-364)
- Sequence (P20138 18-364 I281A limits assumed): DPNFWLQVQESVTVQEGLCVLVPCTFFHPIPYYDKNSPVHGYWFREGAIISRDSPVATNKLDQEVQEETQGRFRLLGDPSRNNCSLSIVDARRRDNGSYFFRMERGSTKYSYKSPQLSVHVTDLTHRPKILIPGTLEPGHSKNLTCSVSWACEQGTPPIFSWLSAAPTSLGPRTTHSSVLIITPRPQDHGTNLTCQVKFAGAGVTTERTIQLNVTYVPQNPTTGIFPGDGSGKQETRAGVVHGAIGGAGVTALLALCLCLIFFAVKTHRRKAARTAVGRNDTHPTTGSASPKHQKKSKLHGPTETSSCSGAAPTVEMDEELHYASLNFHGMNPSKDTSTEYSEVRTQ
- PROTOCOL: alanine scan, flow cytometry, HEK293-T;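 further: antibody binding to each alanine-substituted CD33 mutant expressed transiently in HEK293-T, read as fluorescence minus background, mean of duplicates, relative to wild-type CD33 set as 100%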
Number only, in % WT binding; omit the unit.

BINDER	Mean % WT Binding [% WT binding]
Refmab #3 (antibody, V domains shown, The alanine scan used IgG or Fab) VH: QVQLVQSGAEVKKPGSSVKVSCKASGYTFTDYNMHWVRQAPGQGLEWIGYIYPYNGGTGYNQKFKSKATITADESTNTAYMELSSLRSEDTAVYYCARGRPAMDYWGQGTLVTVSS VL: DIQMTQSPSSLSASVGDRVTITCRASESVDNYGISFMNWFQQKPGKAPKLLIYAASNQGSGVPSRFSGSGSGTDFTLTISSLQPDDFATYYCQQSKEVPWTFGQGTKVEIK	91
Refmab #4 (antibody, V domains shown, The alanine scan used IgG or Fab) VH: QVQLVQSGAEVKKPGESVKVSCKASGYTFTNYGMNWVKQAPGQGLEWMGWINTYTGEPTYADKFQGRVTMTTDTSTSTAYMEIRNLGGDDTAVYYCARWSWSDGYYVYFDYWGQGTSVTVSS VL: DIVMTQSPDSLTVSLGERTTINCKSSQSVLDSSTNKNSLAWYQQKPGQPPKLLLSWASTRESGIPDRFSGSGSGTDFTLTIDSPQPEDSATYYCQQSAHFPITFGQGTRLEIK	122
Refmab #1 (antibody, V domains shown, The alanine scan used IgG or Fab; also called hP67.6) VH: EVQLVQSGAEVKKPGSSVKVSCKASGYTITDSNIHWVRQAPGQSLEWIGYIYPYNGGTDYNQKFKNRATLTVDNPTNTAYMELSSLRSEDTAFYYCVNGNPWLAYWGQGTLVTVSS VL: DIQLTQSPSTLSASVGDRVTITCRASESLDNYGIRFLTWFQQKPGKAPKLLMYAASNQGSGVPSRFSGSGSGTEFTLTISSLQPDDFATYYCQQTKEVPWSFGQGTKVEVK	85

In the following, a different binder is considered.
Quickly give me recorded Mean % WT Binding for Refmab #2 (antibody, V domains shown, The alanine scan used IgG or Fab) VH: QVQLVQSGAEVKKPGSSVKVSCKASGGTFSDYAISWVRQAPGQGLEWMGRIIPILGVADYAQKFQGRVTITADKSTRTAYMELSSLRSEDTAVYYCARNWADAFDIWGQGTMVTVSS VL: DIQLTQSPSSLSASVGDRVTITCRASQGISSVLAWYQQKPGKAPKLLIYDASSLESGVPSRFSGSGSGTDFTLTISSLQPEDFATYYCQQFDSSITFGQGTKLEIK 114

Where these numbers come from: patent US20260242735A1
